All figures here come from patent US5442060A.

Target: ACAT (Homo sapiens, UniProt P35610)
Construct: endogenous in cells
Sequence (P35610 whole entry): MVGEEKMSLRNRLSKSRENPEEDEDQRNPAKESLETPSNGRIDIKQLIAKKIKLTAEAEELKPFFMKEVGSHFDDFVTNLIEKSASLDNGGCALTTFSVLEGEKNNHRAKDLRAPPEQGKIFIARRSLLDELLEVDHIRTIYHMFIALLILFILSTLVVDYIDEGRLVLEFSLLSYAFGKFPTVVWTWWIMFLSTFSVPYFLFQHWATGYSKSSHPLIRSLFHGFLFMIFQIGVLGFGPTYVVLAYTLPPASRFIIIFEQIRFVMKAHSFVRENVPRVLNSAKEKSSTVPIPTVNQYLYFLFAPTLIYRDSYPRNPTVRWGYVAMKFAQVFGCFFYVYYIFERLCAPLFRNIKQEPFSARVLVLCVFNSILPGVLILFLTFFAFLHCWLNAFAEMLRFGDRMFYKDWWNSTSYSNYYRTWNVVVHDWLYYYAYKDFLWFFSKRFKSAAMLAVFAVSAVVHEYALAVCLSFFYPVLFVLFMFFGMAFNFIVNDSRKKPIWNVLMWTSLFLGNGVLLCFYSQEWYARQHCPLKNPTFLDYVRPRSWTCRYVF
Assay: ACAT inhibition: radiolabelled cholesterol oleate production from labelled oleic acid in HepG2 cells
Conditions: concentration required to inhibit 50% of ACAT (cholesterol oleate production vs control)
measured property: IC50 (nM)

| molecule | assayed target | result number |
| --- | --- | --- |
| CCCCC[C@@H](CNC(=O)Nc1c(OC)ccc2c1CCCC2)c1cccc2c1OCO2 | ACAT (Homo sapiens, UniProt P35610) | 154 |
| CCCCCC(CC(=O)Nc1c(C(C)C)cccc1C(C)C)c1cc(C(C)=O)cc(OC)c1OC (stereo not shown) | ACAT (Homo sapiens, UniProt P35610) | 7.6 |
| CCCCC[C@@H](CNC(=O)Nc1cccc2c1OC(C)(C)C2)c1cccc2c1OCO2 | ACAT (Homo sapiens, UniProt P35610) | 230 |
| CCCCCC(CC(=O)Nc1c(C(C)C)cccc1C(C)C)c1cccc(OC)c1OC (stereo not shown) | ACAT (Homo sapiens, UniProt P35610) | 3 |
| CCCCCC(CCC(=O)Nc1c(C(C)C)cccc1C(C)C)c1cccc2c1OCO2 (stereo not shown) | ACAT (Homo sapiens, UniProt P35610) | 10 |

P. CCCCCC(CC(=O)Nc1c(C(C)C)cccc1C(C)C)c1cc(N(C)C)cc(OC)c1OC (stereo not shown)
Q. CCCCC[C@@H](CNC(=O)Nc1c(N(C)C)ncnc1N(C)C)c1cccc2c1OCO2
In: Of P and Q , which carries the smaller reported IC50 figure? Answer format: the label of the selected item.
Out: P

P. CCCCC[C@@H](CNC(=O)Nc1c(OC(C)C)ccc2c1CCCC2)c1cccc2c1OCO2
Q. CCCCC[C@@H](CNC(=O)Nc1c(N2CCCC2)ncnc1N1CCCC1)c1cccc2c1OCO2
R. CCCCC[C@@H](CNC(=O)Nc1c(OC(C)C)c(C)nn1C(C)(C)C)c1cccc2c1OCO2
In: Rank the items in ascending order with respect to IC50. Use the labels to give the requested order.
Out: P, R, Q
(P: 37 nM, R: 106 nM, Q: 175 nM)

* * *

Biological target: ACAT (Homo sapiens, UniProt P35610)
Construct: endogenous in cells
Assay: ACAT inhibition: radiolabelled cholesterol oleate production from labelled oleic acid in HepG2 cells
Conditions: concentration required to inhibit 50% of ACAT (cholesterol oleate production vs control)
pIC50: −log10 of the molar value. Structures can show the parent of a compound that is named as a salt.
measured property: pIC50

Answered cases to consult:
| compound | result number |
| --- | --- |
| CCCCC[C@@H](CNC(=O)Nc1c(OC(C)C)ncnc1OC(C)C)c1cccc2c1OCO2 [Example 29] | 6.50 |
| CCCCC[C@H](CC(=O)Nc1c(C(C)C)ccc(N(C)C)c1C(C)C)c1cccc2c1OCO2 [Example 18, hydrochloride] | 7.00 |

P. CCCCCC(CCC(=O)Nc1c(C(C)C)cccc1C(C)C)c1cccc(OC)c1OC (stereo not shown) [Example 9]
Q. CCCCCC(CC(=O)Nc1c(C(C)C)cccc1C(C)C)c1cccc2c1OCO2 (stereo not shown) [Example 1]
In: Between the two listed entries P and Q , which has its pIC50 at the higher number? Answer format: the label of the selected item.
Out: Q

* * *

Target: ACAT (Homo sapiens)
Construct: endogenous in cells; host or cells: HepG2
Experiment: ACAT inhibition: radiolabelled cholesterol oleate production from labelled oleic acid in HepG2 cells
Format: cell-based
Settings: concentration required to inhibit 50% of ACAT (cholesterol oleate production vs control)
measured property: IC50 (µM)

| compound | result number |
| --- | --- |
| CCCCC[C@@H](CNC(=O)Nc1c(OCC)ccc2c1CCCC2)c1cccc2c1OCO2 | 0.139 |

a. CCCCC(CC(=O)Nc1c(C(C)C)cccc1C(C)C)c1cccc(OC)c1OC (stereo not drawn)
b. CCCCC[C@@H](CNC(=O)Nc1c(OCC)ccc2c1CCC2)c1cccc2c1OCO2
c. CCCCCCC(CC(=O)Nc1c(C(C)C)cccc1C(C)C)c1cccc(OC)c1OC (stereo not drawn)
d. CCCCC[C@@H](CNC(=O)Nc1c(OCC)ncnc1N(C)C)c1cccc2c1OCO2
e. CCCCC[C@@H](CNC(=O)Nc1c(OC(C)C)c(C)nn1-c1ccccc1)c1cccc2c1OCO2
In: Rank the items in ascending order with respect to IC50. Use the labels to give the requested order.
Out: c, a, e, d, b
(c: 0.0065 µM, a: 0.018 µM, e: 0.028 µM, d: 0.109 µM, b: 0.195 µM)
